Provide the recorded pIC50 for the entries that follow.
# Measured Target: CYP2C9 (Homo sapiens, UniProt P11712)
# Sequence (P11712 whole entry): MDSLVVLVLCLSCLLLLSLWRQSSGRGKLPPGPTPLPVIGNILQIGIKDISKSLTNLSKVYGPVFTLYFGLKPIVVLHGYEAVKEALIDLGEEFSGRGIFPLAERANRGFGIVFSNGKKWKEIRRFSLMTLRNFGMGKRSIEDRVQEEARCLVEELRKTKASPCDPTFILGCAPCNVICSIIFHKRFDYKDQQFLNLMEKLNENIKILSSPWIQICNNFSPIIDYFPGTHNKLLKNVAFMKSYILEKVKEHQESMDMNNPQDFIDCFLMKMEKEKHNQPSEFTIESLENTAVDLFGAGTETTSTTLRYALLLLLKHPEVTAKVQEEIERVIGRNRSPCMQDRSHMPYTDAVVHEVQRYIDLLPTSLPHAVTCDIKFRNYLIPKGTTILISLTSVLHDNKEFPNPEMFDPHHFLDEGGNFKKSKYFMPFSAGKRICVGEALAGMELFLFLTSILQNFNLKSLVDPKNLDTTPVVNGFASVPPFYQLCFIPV
# Assay Details: CYP2C9 inhibition (fluorescent substrate)
# Assay type: in vitro ADME
# Condition Set: CYP2C9, MFC substrate; read-out: Cyp IC50 2C9
pIC50: −log10 of the molar value.

Recorded pIC50, per entry:
>>> reported("Cc1cnc2[nH]cc(C(=O)c3c(F)ccc(NS(=O)(=O)c4cccc(F)c4)c3F)c2c1")
"> 5.30"
>>> reported("COc1ccnc2[nH]cc(C(=O)c3c(F)ccc(NS(=O)(=O)c4cc(F)ccc4F)c3F)c12")
"5.00 to 5.30"
>>> reported("Cc1cnc2[nH]cc(C(=O)c3c(F)ccc(NS(=O)(=O)c4cc(F)ccc4F)c3F)c2c1")
"< 5.00"

The record that follows has no pIC50 shown yet.
Reported pIC50 (CYP2C9 (Homo sapiens, UniProt P11712)) for entry N#Cc1cnc2[nH]cc(C(=O)c3c(F)ccc(NS(=O)(=O)c4c(F)cccc4F)c3F)c2c1 is < 5.00

Values from patent US8198273B2
